Cited source: paper PMC5098251

Target: T1, recombinant human FasR (Homo sapiens, UniProt P25445)
T1 construct: Fas receptor (FasR, CD95), human, recombinant; The FasR of the BLI and SPR experiments; Details are in Supplementary Protocols 8-10; also called recombinant FasR
T1 sequence (P25445 26-335): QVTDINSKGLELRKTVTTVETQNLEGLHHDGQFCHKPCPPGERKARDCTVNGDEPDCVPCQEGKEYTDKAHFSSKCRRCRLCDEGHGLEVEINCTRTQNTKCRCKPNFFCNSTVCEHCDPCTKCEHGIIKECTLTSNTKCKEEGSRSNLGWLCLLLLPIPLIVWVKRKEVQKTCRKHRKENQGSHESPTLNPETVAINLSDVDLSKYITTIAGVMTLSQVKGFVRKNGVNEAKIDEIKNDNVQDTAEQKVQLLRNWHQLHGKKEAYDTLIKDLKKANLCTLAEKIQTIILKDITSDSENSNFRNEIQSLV
Test: SPR; BIAcore T100; low density IgG-coated chip surface, recombinant human FasR; 1:1 Langmuir model; at least in duplicate
Conditions: both partners purified

{"binder": "E09 IgG (antibody, V domains shown, VH: as the VH of m6 (E09); IgG heavy constant region; VL: as the VL of m6 (E09); light constant region; IgG; also called parent) VH: QLQLQESGPGLVKPSETLSLTCTVSGASISANSYYGVWVRQSPGKGLEWVGSIAYRGNSNSGSTYYNPSLKSRATVSVDTSKNQVSLRLTSVTAADTALYYCARRQLLDDGTGYQWAAFDVWGQGTMVTVSS VL: QSVLTQPPSVSEAPRQTVTISCSGNSFNIGRYPVNWYQQLPGKAPKLLIYYNNLRFSGVSDRFSGSKSGTSASLAIRDLLSEDEADYYCSTWDDTLKGWVFGGGTKVTVL", "kon / M⁻¹ s⁻¹": 174000}
{"binder": "A07a IgG (antibody, V domains shown, numbers count on: Kabat numbering; IgG heavy constant region; light constant region; IgG made from the scFv A07a) VH: QLQLQESGPGLVKPSETLSLTCTVPGASISANSYYGVWVRQSPGKGLEWVGSIAYRGNSNSGSTYYNPSLKGRATVSVDTSKNQVSLRLTSVTAADTALYYCARRQLLDDGTGYQWAAFDNWDQGTMVTVSS VL: QSVLTQPPSVSEAPRQTVTISCSGNSFNIGRYPVNWYQQLPGKAPKLLIYSNNLRFSGVSDRFSGSKSGTSASLAIRDLLSEDEADYYCSTWDDTLKGWVFGGGTKVTVL", "kon / M⁻¹ s⁻¹": 230000}
{"binder": "R4aS IgG (antibody, V domains shown, numbers count on: Kabat numbering; IgG heavy constant region; light constant region; IgG; also called antibody R4aS) VH: QLQLQESGPGLVKPSETLSLTCTVPGASISANSYYGVWVRQSPGKGLEWVGSIAYRGNSNSGSTYYNPSLKSRATVSVDTSKNQVSLRLTSVTAADTALYYCARRQLLDDGTGYQWAAFDNWDQGTMVTVSS VL: QSVLTQPPSVSEAPRQTVTISCSGNSFNTGRYPVNWYQQLPGKAPKLLIYSNNLRLSGVSDRFSGSKSGTSASLAIRDLLSEDEADYYCSTWDDTLEGWVFGGGTKVTVL", "kon / M⁻¹ s⁻¹": 282000}
{"binder": "Ep6b_B01 IgG (antibody, V domains shown, numbers count on: Kabat numbering; IgG heavy constant region; light constant region; IgG) VH: QLQLQESGPGLVKPSETLSLTCTVSGASISANSYYGVWVRQSPGKGLEWVGSIAYRGNSNSGSTYYNPSLKSRATVSVDSSKNQVSLRLTSVTAADTALYYCARRQLLDDGTGYQWAAFDVWGQGTMVTVSS VL: QSVLTQPPSVSEAPRQTVTISCSGNSSNIGRYPVNWYQQLPGKAPKLLIYSDNLRFSGVPDRFSGSKSGTTASLAIRDLLSEDEADYYCSTWDDTLEGWVFGGGTKVTVL", "kon / M⁻¹ s⁻¹": 746000}
